Molecular target: KRAS G12D (Homo sapiens (Human), UniProt P01116+P62937, G12D)
Sequence (P01116-2 other isoform, or with tags, fused parts or gaps G12D): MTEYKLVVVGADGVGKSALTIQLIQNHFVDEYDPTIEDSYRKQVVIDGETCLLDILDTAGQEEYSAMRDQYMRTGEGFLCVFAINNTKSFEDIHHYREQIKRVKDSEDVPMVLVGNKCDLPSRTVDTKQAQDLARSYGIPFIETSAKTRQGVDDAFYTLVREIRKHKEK
Sequence (P62937 whole entry): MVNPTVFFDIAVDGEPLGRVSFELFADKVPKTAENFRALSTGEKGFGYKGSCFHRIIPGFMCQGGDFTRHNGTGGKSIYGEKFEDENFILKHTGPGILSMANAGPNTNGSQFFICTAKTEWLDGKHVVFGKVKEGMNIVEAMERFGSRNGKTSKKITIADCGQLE
Assay: Ras-Raf (BRAF RBD) disruption / FRET / MOA assay, KRAS G12D
Type: biochemical
Details: Ras-Raf disruption/FRET/MOA assay; class symbols; read-out: KRAS G12D FRET data IC50
pIC50: −log10 of the molar value.

# compound, targetDesc, pIC50
rows = [
    ("CCn1c(-c2cccnc2[C@H](C)OC)c2c3cc(ccc31)-c1cccc(c1)C[C@H](NC(=O)[C@@H](CO[C@H]1CCN(C(=O)C#CC(C)(C)N(C)C)C1)C(C)C)C(=O)N1CCC[C@H](N1)C(=O)OCC(C)(C)C2 (atropisomer, axis not shown)", "KRAS G12D (Homo sapiens (Human), UniProt P01116+P62937, G12D)", "< 5.00"),
    ("CCn1c(-c2cccnc2[C@H](C)OC)c2c3cc(ccc31)-c1cccc(c1)C[C@H](NC(=O)[C@@H](COC1CN(C(=O)C#CC(C)(C)N(C)CCO)C1)C(C)C)C(=O)N1CCC[C@H](N1)C(=O)OCC(C)(C)C2 (atropisomer, axis not shown)", "KRAS G12D (Homo sapiens (Human), UniProt P01116+P62937, G12D)", "< 5.00"),
]

Cited source: patent US11566007B2
